PBM binding z-score by entry:
test system: THRa:RXRa (NR concentration 90 nM, RXRa partner concentration 90 nM); assay: PBM binding z-score (relative to random genomic background probes); higher = stronger binding; sequences stand for … in GC…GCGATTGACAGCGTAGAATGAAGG
measurement_label: PBM binding z-score

[
  {
    "sequence_content": "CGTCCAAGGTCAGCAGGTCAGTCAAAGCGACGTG",
    "measured_on": "THRa:RXRa (NR concentration 90 nM, RXRa partner concentration 90 nM)",
    "measurement": 3.74
  },
  {
    "sequence_content": "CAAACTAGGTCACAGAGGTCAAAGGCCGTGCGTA",
    "measured_on": "THRa:RXRa (NR concentration 90 nM, RXRa partner concentration 90 nM)",
    "measurement": 4.42
  },
  {
    "sequence_content": "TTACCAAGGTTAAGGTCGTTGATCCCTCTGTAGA",
    "measured_on": "THRa:RXRa (NR concentration 90 nM, RXRa partner concentration 90 nM)",
    "measurement": 3.73
  },
  {
    "sequence_content": "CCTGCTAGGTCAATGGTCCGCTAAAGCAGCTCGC",
    "measured_on": "THRa:RXRa (NR concentration 90 nM, RXRa partner concentration 90 nM)",
    "measurement": 2.19
  },
  {
    "sequence_content": "CGAACTTGGTCAGAACAGGACAGTGAAGGATGAT",
    "measured_on": "THRa:RXRa (NR concentration 90 nM, RXRa partner concentration 90 nM)",
    "measurement": 1.09
  },
  {
    "sequence_content": "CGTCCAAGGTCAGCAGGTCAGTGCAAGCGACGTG",
    "measured_on": "THRa:RXRa (NR concentration 90 nM, RXRa partner concentration 90 nM)",
    "measurement": 3.77
  },
  {
    "sequence_content": "CGTCCAAGGTAATAGGAGGTCAGTGAAGACAGAT",
    "measured_on": "THRa:RXRa (NR concentration 90 nM, RXRa partner concentration 90 nM)",
    "measurement": 3.94
  },
  {
    "sequence_content": "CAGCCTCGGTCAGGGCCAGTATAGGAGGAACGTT",
    "measured_on": "THRa:RXRa (NR concentration 90 nM, RXRa partner concentration 90 nM)",
    "measurement": -0.5
  },
  {
    "sequence_content": "ATATGTAGGTTATTGGGTCATTCAGTTTGCGCAT",
    "measured_on": "THRa:RXRa (NR concentration 90 nM, RXRa partner concentration 90 nM)",
    "measurement": 2.85
  },
  {
    "sequence_content": "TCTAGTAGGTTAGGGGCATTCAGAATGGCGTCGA",
    "measured_on": "THRa:RXRa (NR concentration 90 nM, RXRa partner concentration 90 nM)",
    "measurement": 1.03
  },
  {
    "sequence_content": "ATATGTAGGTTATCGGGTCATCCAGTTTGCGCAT",
    "measured_on": "THRa:RXRa (NR concentration 90 nM, RXRa partner concentration 90 nM)",
    "measurement": 3.68
  },
  {
    "sequence_content": "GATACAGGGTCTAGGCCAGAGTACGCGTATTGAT",
    "measured_on": "THRa:RXRa (NR concentration 90 nM, RXRa partner concentration 90 nM)",
    "measurement": -0.508
  },
  {
    "sequence_content": "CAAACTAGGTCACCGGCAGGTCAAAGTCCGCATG",
    "measured_on": "THRa:RXRa (NR concentration 90 nM, RXRa partner concentration 90 nM)",
    "measurement": 4.37
  },
  {
    "sequence_content": "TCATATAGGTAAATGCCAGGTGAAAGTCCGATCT",
    "measured_on": "THRa:RXRa (NR concentration 90 nM, RXRa partner concentration 90 nM)",
    "measurement": 2.02
  },
  {
    "sequence_content": "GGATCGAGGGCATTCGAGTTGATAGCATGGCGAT",
    "measured_on": "THRa:RXRa (NR concentration 90 nM, RXRa partner concentration 90 nM)",
    "measurement": 3.39
  },
  {
    "sequence_content": "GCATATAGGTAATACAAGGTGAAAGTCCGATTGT",
    "measured_on": "THRa:RXRa (NR concentration 90 nM, RXRa partner concentration 90 nM)",
    "measurement": 4.31
  },
  {
    "sequence_content": "TCTGCTAGGTCAACGATGGTCAGATAATCTGCTA",
    "measured_on": "THRa:RXRa (NR concentration 90 nM, RXRa partner concentration 90 nM)",
    "measurement": 3.17
  },
  {
    "sequence_content": "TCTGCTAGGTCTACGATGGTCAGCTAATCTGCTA",
    "measured_on": "THRa:RXRa (NR concentration 90 nM, RXRa partner concentration 90 nM)",
    "measurement": -1.43
  },
  {
    "sequence_content": "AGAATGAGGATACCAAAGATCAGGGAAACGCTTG",
    "measured_on": "THRa:RXRa (NR concentration 90 nM, RXRa partner concentration 90 nM)",
    "measurement": 1.5
  },
  {
    "sequence_content": "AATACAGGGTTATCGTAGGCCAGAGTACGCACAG",
    "measured_on": "THRa:RXRa (NR concentration 90 nM, RXRa partner concentration 90 nM)",
    "measurement": 3.61
  },
  {
    "sequence_content": "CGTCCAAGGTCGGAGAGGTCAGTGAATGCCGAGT",
    "measured_on": "THRa:RXRa (NR concentration 90 nM, RXRa partner concentration 90 nM)",
    "measurement": 3.34
  },
  {
    "sequence_content": "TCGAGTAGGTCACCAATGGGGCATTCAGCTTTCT",
    "measured_on": "THRa:RXRa (NR concentration 90 nM, RXRa partner concentration 90 nM)",
    "measurement": 2.42
  },
  {
    "sequence_content": "GTACCAAGGTGAATAGGCCGTTGATGAGTAGGCG",
    "measured_on": "THRa:RXRa (NR concentration 90 nM, RXRa partner concentration 90 nM)",
    "measurement": 1.16
  },
  {
    "sequence_content": "CATACTGGGCCATCAGGTCATTGATATCAACGTT",
    "measured_on": "THRa:RXRa (NR concentration 90 nM, RXRa partner concentration 90 nM)",
    "measurement": 3.29
  },
  {
    "sequence_content": "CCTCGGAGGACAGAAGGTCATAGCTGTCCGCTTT",
    "measured_on": "THRa:RXRa (NR concentration 90 nM, RXRa partner concentration 90 nM)",
    "measurement": 2.95
  }
]
